# measured.target: Cytochrome P450 2D6 (Homo sapiens) (UniProt P10635)
# Sequence (P10635 whole entry, looked up): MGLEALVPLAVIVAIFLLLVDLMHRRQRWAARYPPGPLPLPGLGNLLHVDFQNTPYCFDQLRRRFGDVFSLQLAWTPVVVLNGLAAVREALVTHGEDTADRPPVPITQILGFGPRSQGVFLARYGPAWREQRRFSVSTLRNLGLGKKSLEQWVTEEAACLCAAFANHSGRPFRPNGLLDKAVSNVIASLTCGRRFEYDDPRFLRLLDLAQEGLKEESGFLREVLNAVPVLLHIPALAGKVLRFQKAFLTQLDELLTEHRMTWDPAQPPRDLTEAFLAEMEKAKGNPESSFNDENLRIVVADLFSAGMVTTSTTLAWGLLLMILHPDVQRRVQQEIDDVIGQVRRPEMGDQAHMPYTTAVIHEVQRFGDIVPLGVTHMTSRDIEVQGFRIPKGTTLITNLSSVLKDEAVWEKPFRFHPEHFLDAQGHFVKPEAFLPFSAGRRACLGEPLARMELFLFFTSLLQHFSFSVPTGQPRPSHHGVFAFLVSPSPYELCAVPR
# procedure.details: qHTS Assay for Inhibitors and Substrates of Cytochrome P450 2D6 (AID 891); further: nearly all actives have a fitted effect of over 60% in size
# measurement.context: recombinant CYP2D6, luciferin-ME EGE luminescence; series mostly up to 11.4 µM
Results filed as inconclusive are left out. Activity calls are given as the source filed them. The call rests on the fitted dose curve; in most records, active means well fitted inhibition curve with a large enough effect; inconclusive means small, poorly fitted or top-dose-only effect; inactive means no such curve, though single readings can be large or run the other way.
Your response should consist of one outcome taken from T for active, F for inactive

Reference set (9 entries):
{"columns": ["compound", "measured.target", "discrete.label"],
 "data": [
  ["C/C(CCC(=O)OC[C@@H]1O[C@H](C#Cc2ccccc2)C=C[C@@H]1Oc1ccc(C)cc1)=N/O[C@@H](C)CN1CCCc2nc(C)c(C)cc21", "Cytochrome P450 2D6 (Homo sapiens) (UniProt P10635)", "T"],
  ["COC(=O)C1=C(C)N(Cc2ccccc2)C2=C3C(=O)CCCC3[C@@](O)(C(=O)OC)C(=O)N2C1c1ccccc1 (stereo not given in full)", "Cytochrome P450 2D6 (Homo sapiens) (UniProt P10635)", "F"],
  ["C=CCC(O)CC1C2C(CC(O)CC=C)C3C1C3C2OC(C)(C)C (stereo not given)", "Cytochrome P450 2D6 (Homo sapiens) (UniProt P10635)", "F"],
  ["COc1ccc(/C=C/C(=O)c2ccccc2O)cc1", "Cytochrome P450 2D6 (Homo sapiens) (UniProt P10635)", "T"],
  ["CC(C)(C)c1ccc(OC2C(O)COC2/C=C/C#Cc2ccccc2)cc1 (stereo not given)", "Cytochrome P450 2D6 (Homo sapiens) (UniProt P10635)", "F"],
  ["C=C(C)C(O)/C=C/C=C/c1ccccc1 (stereo not given)", "Cytochrome P450 2D6 (Homo sapiens) (UniProt P10635)", "F"],
  ["CCCCC1CN2C(CCC(C)C2c2ccc(Br)cc2)C(=O)O1 (stereo not given)", "Cytochrome P450 2D6 (Homo sapiens) (UniProt P10635)", "F"],
  ["CCCCCCC1=Cc2cc(OC)c(OC)cc2C(C(C(C)=O)C(=O)OC)O1 (stereo not given)", "Cytochrome P450 2D6 (Homo sapiens) (UniProt P10635)", "F"],
  ["C#CCCCO/N=C1/[C@H]2O[C@@H]2[C@@H](O)[C@H]2[C@H]1CCn1c(=O)n(C)c(=O)n12", "Cytochrome P450 2D6 (Homo sapiens) (UniProt P10635)", "F"]
]}

Request: Can you look up the reported call for CCCCCCCC#Cc1ccccc1/C=N/S(=O)c1ccc(C)cc1 (stereo not given) for me?
Response: F

* * *

# measured.target: Estrogen receptor (Homo sapiens)
# procedure.details: qHTS assay for small molecule agonists of estrogen receptor alpha signaling (AID 588514); further: nearly all actives have a fitted effect of over 70% in size
# measurement.context: ER-alpha-UAS-bla HEK293, beta-lactamase ratio, 18 h; series mostly up to 76.8 µM
Results filed as inconclusive are left out. Active and inactive are the calls of the source. Calls follow the shape of the full dose curve.
Outcome field: choose from active, inactive

Below are worked cases with known answers.
{"columns": ["compound", "discrete.label"],
 "data": [
  ["Nc1cc(Cl)nc(C(=O)O)c1Cl", "inactive"],
  ["CC(=O)N(CCN(C(C)=O)C(C)=O)C(C)=O", "inactive"],
  ["C=C(C)C(=O)OCCCCCCCCCCCC", "inactive"],
  ["c1ccc2cc3ccccc3cc2c1", "inactive"],
  ["COC(=O)c1cccc(C(=O)OC)c1", "inactive"]
]}

Request: Test call for this compound, please: C[Si]1(C)O[Si](C)(C)O[Si](C)(C)O[Si](C)(C)O[Si](C)(C)O1
Response: inactive

Request: # outcome recorded in this test, key = C=C(C)C(=O)OCCCCCCCCCCCCCCCC
Response: inactive

Request: Recorded test outcome, item C=CC(=O)OCC(C)OCC(C)OCC(C)OC(=O)C=C (stereo not given)
Response: inactive
